test: Cytometric Cell-Based qHTS for Inhibitors of the mTORC1 Signaling Pathway in MEF (Tsc2-/-, p53-/-) Cells (AID 2660);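 note: Tsc2 and p53 null MEFs carrying empty vector with compound for 24 h; percent of cells above a phospho-rpS6 to PI ratio cutoff in each well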
measurement-setup: mTORC1 pathway cytometry; series mostly up to 38.3 µM
Results filed as inconclusive are left out. The source made the active and inactive calls. Calls come from the whole dose curve; as a rule, active = well fitted curve in the direction sought with a large enough effect; inconclusive = small, poorly fitted or top-dose-only effect, or another doubt; inactive = no such curve, though single readings can be large or run the other way.
reported-endpoint: outcome

| compound | readout-value |
| --- | --- |
| NC(=O)c1cc(N2CC2)c([N+](=O)[O-])cc1[N+](=O)[O-] | inactive |
| COc1ccc2[nH]c3c(c2c1)CCNC3 | inactive |
| CN(N=O)c1ccc(O)c(O)c1 | inactive |
| C[N+](C)(C)CC#CCOC(=O)Nc1cccc(Cl)c1 | inactive |
| NC(C(=O)O)c1cc(=O)[nH]o1 (stereo not given) | inactive |
| CCCN1CC[C@@H]2c3cc(O)ccc3CC[C@@H]21 | inactive |
| CCCN(CCC)CCc1ccc(O)c(O)c1 | inactive |
| CC(=O)OCC1=C(C(=O)O)N2C(=O)[C@@H](NC(=O)CCC[C@@H](N)C(=O)O)[C@H]2SC1 | inactive |
| CCCN(CCC)C1CCc2cccc(O)c2C1 (stereo not given) | inactive |
| CC(N)Cc1c[nH]c2ccc(O)cc12 (stereo not given) | inactive |
| CC(C)[C@@]1(NC(=O)[C@@H]2C[C@@H]3c4cccc5[nH]cc(c45)C[C@H]3N(C)C2)O[C@@]2(O)[C@@H]3CCCN3C(=O)[C@H](Cc3ccccc3)N2C1=O | inactive |
| COc1ccc(CNC(=O)/C=C/c2ccc3[nH]cc(CCN(C)C)c3c2)cc1 | inactive |
| COc1ccc2c(c1O)-c1cccc3c1[C@@H](C2)N(C)CC3 | inactive |
| CCCN(CCC)[C@@H]1CCc2cccc(O)c2C1 | inactive |
| CC12NC(Cc3ccccc31)c1ccccc12 (stereo not given) | inactive |
| CCCN1CCc2cccc3c2[C@H]1Cc1ccc(O)c(O)c1-3 | inactive |
| C[C@]12Cc3cn4c(nc3C=C1CCC1C2CC[C@@]2(C)[C@H]1CC[C@@]2(O)C#N)nc1ccccc14 (stereo not given in full) | inactive |
| CP(=O)(O)C1=CCNCC1 | inactive |
| CCOC(=O)c1ncn2c1[C@@H]1CCCN1C(=O)c1cc(OC)ccc1-2 | inactive |
| CCCN(CCC)[C@H]1CCc2c(F)ccc(O)c2C1 | inactive |
| COc1ccc2c(c1)c(CCN1CCOCC1)c(C)n2C(=O)c1cccc(Cl)c1Cl | inactive |
| CCCC[N+]1(C)C2CC(OC(=O)[C@H](CO)c3ccccc3)CC1C1OC12 (stereo not given in full) | inactive |
| C[Se]C[C@H](N)C(=O)O | inactive |
| Cc1cc([C@@H]2CCCN2C)on1 | inactive |
| CCCN(CCC)CCc1c[nH]c2ccc(C(N)=O)cc12 | inactive |
